Biological target: Gal6S(b1-4)GlcNAc6S
Experiment: glycan array binding signal (z-score within array); higher = stronger binding
Conditions: glycan notation: IUPAC condensed, linker removed
Shown is part of a subset that was picked to be rich in the strongest signals.
Please enter YES where glycan array binding signal (z-score) is greater than or equal to 0.9, and NO where it is lower.

Take a look at these entries with their results.
GALT1 615 (Arabidopsis thaliana), Q8L7F9 (protein) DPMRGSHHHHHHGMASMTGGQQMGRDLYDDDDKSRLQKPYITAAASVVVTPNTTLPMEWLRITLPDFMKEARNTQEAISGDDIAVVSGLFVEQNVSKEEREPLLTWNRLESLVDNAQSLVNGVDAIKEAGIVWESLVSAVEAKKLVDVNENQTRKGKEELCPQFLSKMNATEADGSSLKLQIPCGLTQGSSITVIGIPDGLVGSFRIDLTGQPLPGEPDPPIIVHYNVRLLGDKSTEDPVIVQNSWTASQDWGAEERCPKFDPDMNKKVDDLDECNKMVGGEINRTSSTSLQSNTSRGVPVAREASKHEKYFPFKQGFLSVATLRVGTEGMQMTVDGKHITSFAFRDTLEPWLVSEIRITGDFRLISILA: NO
Arath Fbox LD (Arabidopsis thaliana) (protein) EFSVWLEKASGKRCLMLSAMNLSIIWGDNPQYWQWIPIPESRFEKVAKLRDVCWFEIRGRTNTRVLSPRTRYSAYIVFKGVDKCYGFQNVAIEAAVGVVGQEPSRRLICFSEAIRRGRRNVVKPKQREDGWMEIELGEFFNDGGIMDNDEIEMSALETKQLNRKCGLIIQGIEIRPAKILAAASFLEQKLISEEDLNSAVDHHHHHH: NO
PpFlo1 (Pichia pastoris) (protein) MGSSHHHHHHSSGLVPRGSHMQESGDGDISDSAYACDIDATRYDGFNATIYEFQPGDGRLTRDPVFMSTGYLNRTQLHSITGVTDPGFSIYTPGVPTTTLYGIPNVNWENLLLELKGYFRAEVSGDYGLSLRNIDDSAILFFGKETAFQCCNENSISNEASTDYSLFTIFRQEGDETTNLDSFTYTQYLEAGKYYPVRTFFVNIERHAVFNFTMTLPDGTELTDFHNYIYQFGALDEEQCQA: YES
Langerin CRD (Homo sapiens), Q9UJ71 (protein) QVVSQGWKYFKGNFYYFSLIPKTWYSAEQFCVSRNSHLTSVTSESEQEFLYKTAGGLIYWIGLTKAGMEGDWSWVDDTPFNKVQSVRFWIPGEPNNAGNNEHCGNIKAPSLQAWNDAPCDKTFLFICKRPYVPSEPSAWSHPQFEK: YES
Tamarinin (protein) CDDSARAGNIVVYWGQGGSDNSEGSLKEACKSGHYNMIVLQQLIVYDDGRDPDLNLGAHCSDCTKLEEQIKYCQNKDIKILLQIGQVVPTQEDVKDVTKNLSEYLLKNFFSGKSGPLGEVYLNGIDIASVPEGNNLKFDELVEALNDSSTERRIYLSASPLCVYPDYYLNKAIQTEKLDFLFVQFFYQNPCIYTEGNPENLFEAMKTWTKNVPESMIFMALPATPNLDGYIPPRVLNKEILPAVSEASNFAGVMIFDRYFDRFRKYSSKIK: NO

Is glycan array binding signal (z-score) at least 0.9? Consider LFA (Limax flavus) (protein) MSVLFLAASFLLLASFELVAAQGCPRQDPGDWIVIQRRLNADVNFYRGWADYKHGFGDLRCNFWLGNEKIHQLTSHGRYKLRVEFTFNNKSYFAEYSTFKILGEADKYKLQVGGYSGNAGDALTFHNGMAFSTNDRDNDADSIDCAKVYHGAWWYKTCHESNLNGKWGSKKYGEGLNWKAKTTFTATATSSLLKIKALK NO

API: above_or_equal(metric=glycan array binding signal (z-score), cutoff=0.9) for item EUL D1A second (Oryza sativa) (protein) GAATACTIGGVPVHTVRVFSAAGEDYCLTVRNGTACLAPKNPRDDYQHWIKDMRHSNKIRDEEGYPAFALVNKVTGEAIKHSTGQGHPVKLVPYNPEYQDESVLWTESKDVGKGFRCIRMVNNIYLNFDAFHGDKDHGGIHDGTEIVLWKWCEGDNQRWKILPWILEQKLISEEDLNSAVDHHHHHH YES

Does the reported glycan array binding signal (z-score) for SSL (Salmo salar) (protein) TGAKGAEEGVVPAETRNQCPTGWFQFGSRCFMFVETARSWPLAERHCVSLGANLASVHSSADDQFLQAIAGCKTGAFSTTWIGGFDAVQDRLWFWSDGSEFDYQNWAKGEPNNSGGREPCIVINWGDEYRWNDIKCGNSFPSVCSKRICEIQKN fall at or above the 0.9 mark? NO

Check if glycan array binding signal (z-score) >= 0.9 (inclusive). Item: Pp2-A2 (Arabidopsis thaliana), Q07098 (protein) MPSNGDLDRQIEQLMECKPLSEADVRTLCDQARAILVEEYNVQPVKCPVTVCGDIHGQFYDLIELFRIGGNAPDTNYLFMGDYVDRGYYSVETVSLLVALKVRYRDRLTILRGNHESRQITQVYGFYDECLRKYGNANVWKYFTDLFDYLPLTALIESQVFCLHGGLSPSLDTLDNIRSLDRIQEVPHEGPMCDLLWSDPDDRCGWGISPRGAGYTFGQDIAAQFNHNNGLSLISRAHQLVMEGFNWCQDKNVVTVFSAPNYCYRCGNMAAILEIGENMEQNFLQFDPAPRQVEPDTTRKTPDYFL YES
